// MIC lookup, one value per entry
tested on: S. pneumoniae 149389; assay: MIC; assay type: cell-based; conditions: Streptococcus pneumoniae; S. pneumoniae 149389; read-out: MIC

Some entries whose results are on file:
Looking up Oc1ccccc1N=Cc1c(O)c(Br)cc2oc3c(c12)CCCC3 [Compound 136] , I see its MIC listed as > 128 µg/mL

Looking up Cc1ccc2nc(-c3ccc(NC(=O)CN4CCN(CCO)CC4)cc3)sc2c1 [Compound #169] , I see its MIC listed as 128 µg/mL

Looking up Brc1ccc(-c2nc(N3CCNCC3)c3ccccc3n2)cc1 [Compound #880] , I see its MIC listed as 32 µg/mL

---
Looking up CN1CCN(c2nc(C=Cc3ccccc3)nc3ccccc23)CC1 [Compound #096] , I see its MIC listed as 64 µg/mL

Looking up CCN1C(=O)C2Cc3c([nH]c4ccccc34)CN2C1=S (stereo not shown) [Compound #740] , I see its MIC listed as > 128 µg/mL

Looking up COc1ccc2c(c1)c(=O)oc1c(C)c(OC(C(=O)O)c3ccccc3)ccc12 (stereo not shown) [Compound #211] , I see its MIC listed as 128 µg/mL

Looking up O=C(O)C(c1ccccc1)N1C(=O)C(=Cc2c[nH]c3ccccc23)SC1=S (stereo not shown) [Compound 537] , I see its MIC listed as 64 µg/mL

---

tested on: SA 182 (Staphylococcus aureus 182); assay: MIC; assay type: cell-based; conditions: SA 182, read-out: MIC
measured_quantity: MIC (µg/mL)
Just the number in µg/mL, nothing appended.

Looking up `Brc1ccc(-c2nc(N3CCNCC3)c3ccccc3n2)cc1` , I see its MIC listed as 8

Looking up `CN1CCN(c2nc(C=Cc3ccccc3)nc3ccccc23)CC1` , I see its MIC listed as 128

Looking up `Cc1ccc2nc(-c3ccc(NC(=O)CN4CCN(CCO)CC4)cc3)sc2c1` , I see its MIC listed as 16

Looking up O=C(O)C(c1ccccc1)N1C(=O)C(=Cc2c[nH]c3ccccc23)SC1=S (stereo not shown) , I see its MIC listed as 64

Looking up CCN1C(=O)C2Cc3c([nH]c4ccccc34)CN2C1=S (stereo not shown) , I see its MIC listed as 128

---
Looking up COc1ccc2c(c1)c(=O)oc1c(C)c(OC(C(=O)O)c3ccccc3)ccc12 (stereo not shown) , I see its MIC listed as 128

---

// CC50 lookup, one value per entry
test: Mammalian Cell Toxicity; type: cell-based; settings: human, MRC5 cells

Some entries whose results are on file:
Looking up `CN1CCN(c2nc(C=Cc3ccccc3)nc3ccccc23)CC1` , I see its CC50 listed as 62 µg/mL

Looking up `Cc1ccc2nc(-c3ccc(NC(=O)CN4CCN(CCO)CC4)cc3)sc2c1` , I see its CC50 listed as < 2 µg/mL

---
Looking up `CC[n+]1c(C=CC=CN(C(C)=O)c2ccccc2)sc2ccccc21.[I-]` , I see its CC50 listed as 20 to 64 µg/mL

Looking up `Oc1ccccc1N=Cc1c(O)c(Br)cc2oc3c(c12)CCCC3` , I see its CC50 listed as 6.8 µg/mL

Looking up O=C(O)C(c1ccccc1)N1C(=O)C(=Cc2c[nH]c3ccccc23)SC1=S (centres unmarked) , I see its CC50 listed as 38 µg/mL

Looking up `Brc1ccc(-c2nc(N3CCNCC3)c3ccccc3n2)cc1` , I see its CC50 listed as 2.18 µg/mL

Looking up COc1ccc2c(c1)c(=O)oc1c(C)c(OC(C(=O)O)c3ccccc3)ccc12 (centres unmarked) , I see its CC50 listed as 26 µg/mL

Looking up CCN1C(=O)C2Cc3c([nH]c4ccccc34)CN2C1=S (centres unmarked) , I see its CC50 listed as 62 µg/mL

---

tested on: SA 29213 (Staphylococcus aureus (ATCC 29213)); experiment: MIC; format: cell-based; details: ATCC29213, SA 29213, read-out: MIC
measured_quantity: log10(MIC) (log10 of the value in µg/mL)
// units: µg/mL (pre-log); metric: MIC; scale: log10

Looking up Cc1ccc2nc(-c3ccc(NC(=O)CN4CCN(CCO)CC4)cc3)sc2c1 [Compound #169] , I see its log10(MIC) listed as 1.20

Looking up Brc1ccc(-c2nc(N3CCNCC3)c3ccccc3n2)cc1 [Compound #880] , I see its log10(MIC) listed as 0.90

Looking up Oc1ccccc1N=Cc1c(O)c(Br)cc2oc3c(c12)CCCC3 [Compound 136] , I see its log10(MIC) listed as 1.51

Looking up O=C(O)C(c1ccccc1)N1C(=O)C(=Cc2c[nH]c3ccccc23)SC1=S (stereo not shown) [Compound 537] , I see its log10(MIC) listed as 1.81

Looking up CN1CCN(c2nc(C=Cc3ccccc3)nc3ccccc23)CC1 [Compound #096] , I see its log10(MIC) listed as 1.81

---
Looking up COc1ccc2c(c1)c(=O)oc1c(C)c(OC(C(=O)O)c3ccccc3)ccc12 (stereo not shown) [Compound #211] , I see its log10(MIC) listed as 2.11

Looking up CCN1C(=O)C2Cc3c([nH]c4ccccc34)CN2C1=S (stereo not shown) [Compound #740] , I see its log10(MIC) listed as 1.81

---

system: SA 22 (Staphylococcus aureus 22); experiment: MIC; type: cell-based; conditions: SA 22, read-out: MIC
Doc: threshold 20 µg/mL (exclusive). Items with MIC beneath it return yes (1); others return no (0).

Recorded results for 2 compounds are shown here.
# strict comparison: is reported MIC < 20 µg/mL? input = `Oc1ccccc1N=Cc1c(O)c(Br)cc2oc3c(c12)CCCC3`
yes (1)

# strict comparison: is reported MIC < 20 µg/mL? input = `Brc1ccc(-c2nc(N3CCNCC3)c3ccccc3n2)cc1`
yes (1)

---
# strict comparison: is reported MIC < 20 µg/mL? input = O=C(O)C(c1ccccc1)N1C(=O)C(=Cc2c[nH]c3ccccc23)SC1=S (stereo not shown)
no (0)

# strict comparison: is reported MIC < 20 µg/mL? input = `CN1CCN(c2nc(C=Cc3ccccc3)nc3ccccc23)CC1`
no (0)

# strict comparison: is reported MIC < 20 µg/mL? input = COc1ccc2c(c1)c(=O)oc1c(C)c(OC(C(=O)O)c3ccccc3)ccc12 (stereo not shown)
no (0)

# strict comparison: is reported MIC < 20 µg/mL? input = CCN1C(=O)C2Cc3c([nH]c4ccccc34)CN2C1=S (stereo not shown)
no (0)

# strict comparison: is reported MIC < 20 µg/mL? input = `Cc1ccc2nc(-c3ccc(NC(=O)CN4CCN(CCO)CC4)cc3)sc2c1`
yes (1)

---

// MIC lookup, one value per entry
test system: K. pneumoniae 700603; test: MIC; assay type: cell-based; details: Klebsiella pneumoniae; K. pneumoniae 700603; read-out: MIC

Looking up O=C(O)C(c1ccccc1)N1C(=O)C(=Cc2c[nH]c3ccccc23)SC1=S (stereo not shown) , I see its MIC listed as > 128 µg/mL

Looking up CCN1C(=O)C2Cc3c([nH]c4ccccc34)CN2C1=S (stereo not shown) , I see its MIC listed as > 128 µg/mL

Looking up `Cc1ccc2nc(-c3ccc(NC(=O)CN4CCN(CCO)CC4)cc3)sc2c1` , I see its MIC listed as > 128 µg/mL

---
Looking up COc1ccc2c(c1)c(=O)oc1c(C)c(OC(C(=O)O)c3ccccc3)ccc12 (stereo not shown) , I see its MIC listed as > 128 µg/mL

Looking up `Brc1ccc(-c2nc(N3CCNCC3)c3ccccc3n2)cc1` , I see its MIC listed as > 128 µg/mL

Looking up `CN1CCN(c2nc(C=Cc3ccccc3)nc3ccccc23)CC1` , I see its MIC listed as > 128 µg/mL

Looking up `Oc1ccccc1N=Cc1c(O)c(Br)cc2oc3c(c12)CCCC3` , I see its MIC listed as > 128 µg/mL

---

assay: Mammalian Cell Toxicity; assay type: cell-based; details: mouse, 3T3 cells
// CC50 lookup, one value per entry
Just the number in µg/mL, nothing appended.

Some entries whose results are on file:
Looking up `Brc1ccc(-c2nc(N3CCNCC3)c3ccccc3n2)cc1` , I see its CC50 listed as 2.11

Looking up `CN1CCN(c2nc(C=Cc3ccccc3)nc3ccccc23)CC1` , I see its CC50 listed as 51.5

Looking up COc1ccc2c(c1)c(=O)oc1c(C)c(OC(C(=O)O)c3ccccc3)ccc12 (centres unmarked) , I see its CC50 listed as 28

---
Looking up `Oc1ccccc1N=Cc1c(O)c(Br)cc2oc3c(c12)CCCC3` , I see its CC50 listed as 2.3

---

test: Mammalian Cell Toxicity; format: cell-based; conditions: mouse, 3T3 cells
// CC50 lookup, one value per entry

Looking up `Cc1ccc2nc(-c3ccc(NC(=O)CN4CCN(CCO)CC4)cc3)sc2c1` , I see its CC50 listed as < 2 µg/mL

Looking up CCN1C(=O)C2Cc3c([nH]c4ccccc34)CN2C1=S (stereo not shown) , I see its CC50 listed as 20 to 64 µg/mL

Looking up `CC[n+]1c(C=CC=CN(C(C)=O)c2ccccc2)sc2ccccc21.[I-]` , I see its CC50 listed as 20 to 64 µg/mL

---
Looking up O=C(O)C(c1ccccc1)N1C(=O)C(=Cc2c[nH]c3ccccc23)SC1=S (stereo not shown) , I see its CC50 listed as 20 to 64 µg/mL
